experiment: Ratio of AUC in iv or po dosed mouse brain to plasma; type: ADME, organism-based; settings: read-out: Ratio AUC
VALUE TYPE: Kp

STRUCTURE SMILES: Cc1cc2c(cc1Cc1ccc(-c3cocn3)cc1)C(=O)N([C@H]1CCOC[C@@H]1O)C2
VALUE TYPE: Kp
OBSERVED MEASUREMENT: 0.1

====

biological target: Muscarinic acetylcholine receptor M1 (Homo sapiens, UniProt P11229); test: Agonist activity at human muscarinic acetylcholine receptor M1 expressed in CHO cells assessed as increase in calcium mobilization at 30 uM incubated for 10 mins by Fluo-8-AM dye based FLIPR assay relative to acetylcholine; assay type: cell-based
Sequence (P11229 whole entry): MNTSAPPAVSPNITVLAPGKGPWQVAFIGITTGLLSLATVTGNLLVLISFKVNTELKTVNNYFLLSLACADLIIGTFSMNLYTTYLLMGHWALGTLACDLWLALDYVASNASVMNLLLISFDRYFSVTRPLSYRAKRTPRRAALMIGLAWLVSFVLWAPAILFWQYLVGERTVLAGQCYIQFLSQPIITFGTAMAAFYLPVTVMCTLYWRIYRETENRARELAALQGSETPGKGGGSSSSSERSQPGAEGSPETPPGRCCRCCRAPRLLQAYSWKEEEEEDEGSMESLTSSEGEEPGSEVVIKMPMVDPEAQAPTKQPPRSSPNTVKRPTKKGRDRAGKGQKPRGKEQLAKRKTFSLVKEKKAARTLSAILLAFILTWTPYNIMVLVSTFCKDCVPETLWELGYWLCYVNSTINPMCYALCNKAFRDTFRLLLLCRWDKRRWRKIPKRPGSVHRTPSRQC

STRUCTURE SMILES: Cc1cc2c(cc1Cc1ccc(-c3cocn3)cc1)C(=O)N([C@H]1CCOC[C@@H]1O)C2
Activity (%): 23

====

biological target: Muscarinic acetylcholine receptor M1 (Homo sapiens, UniProt P11229); assay: Positive allosteric modulation of human muscarinic acetylcholine receptor M1 expressed in CHO cells assessed as increase in acetylcholine-induced calcium mobilization preincubated for 10 mins followed by acetylcholine addition by Fluo-8-AM dye based FLIPR assay; type: ADME, cell-based
Grouping rule (EC50): label 0 = under 20 nM, label 1 = from 20 nM up to 50 nM, label 2 = 50 nM and over

STRUCTURE SMILES: Cc1cc2c(cc1Cc1ccc(-c3cnn(C)c3)cc1)C(=O)N([C@H]1CCOC[C@@H]1O)C2
ASSAY SYSTEM: Muscarinic acetylcholine receptor M1 (Homo sapiens, UniProt P11229)
ASSIGNED CLASS: label 1

STRUCTURE SMILES: Cc1cc2c(cc1Cc1ccc(-n3cccn3)cc1)C(=O)N([C@H]1CCOC[C@@H]1O)CC2
ASSAY SYSTEM: Muscarinic acetylcholine receptor M1 (Homo sapiens, UniProt P11229)
ASSIGNED CLASS: label 0

STRUCTURE SMILES: Cc1cc2c(cc1Cc1ccc(-c3cocn3)cc1)C(=O)N([C@H]1CCOC[C@@H]1O)CC2
ASSAY SYSTEM: Muscarinic acetylcholine receptor M1 (Homo sapiens, UniProt P11229)
ASSIGNED CLASS: label 1

STRUCTURE SMILES: Cc1cn(-c2ccc(Cc3cc4c(cc3C)CN([C@H]3CCOC[C@@H]3O)C4=O)cc2)cn1
ASSAY SYSTEM: Muscarinic acetylcholine receptor M1 (Homo sapiens, UniProt P11229)
ASSIGNED CLASS: label 1

STRUCTURE SMILES: Cc1cc2c(cc1Cc1ccc(-n3ccnc3)cc1)C(=O)N([C@H]1CCOC[C@@H]1O)C2
ASSAY SYSTEM: Muscarinic acetylcholine receptor M1 (Homo sapiens, UniProt P11229)
ASSIGNED CLASS: label 2

STRUCTURE SMILES: Cc1nc(-c2ccc(Cc3cc4c(cc3C)CCN([C@H]3CCOC[C@@H]3O)C4=O)cc2)co1
ASSAY SYSTEM: Muscarinic acetylcholine receptor M1 (Homo sapiens, UniProt P11229)
ASSIGNED CLASS: label 1

STRUCTURE SMILES: Cc1cc2c(cc1Cc1ccc(-c3cscn3)cc1)C(=O)N([C@H]1CCOC[C@@H]1O)C2
ASSAY SYSTEM: Muscarinic acetylcholine receptor M1 (Homo sapiens, UniProt P11229)
ASSIGNED CLASS: label 1

STRUCTURE SMILES: Cc1cc2c(cc1Cc1ccc(-c3cscn3)cc1)C(=O)N([C@H]1CCOC[C@@H]1O)CC2
ASSAY SYSTEM: Muscarinic acetylcholine receptor M1 (Homo sapiens, UniProt P11229)
ASSIGNED CLASS: label 0

STRUCTURE SMILES: Cc1cc2c(cc1Cc1ccc(-n3cccn3)cc1)C(=O)N([C@H]1CCOC[C@@H]1O)C2
ASSAY SYSTEM: Muscarinic acetylcholine receptor M1 (Homo sapiens, UniProt P11229)
ASSIGNED CLASS: label 1

STRUCTURE SMILES: Cc1ccc(Cc2cc3c(=O)n([C@H]4CCCC[C@@H]4O)cnc3c3ccccc23)cn1
ASSAY SYSTEM: Muscarinic acetylcholine receptor M1 (Homo sapiens, UniProt P11229)
ASSIGNED CLASS: label 2

STRUCTURE SMILES: Cc1cc2c(cc1Cc1ccc(-c3cocn3)cc1)C(=O)N([C@H]1CCOC[C@@H]1O)C2
ASSAY SYSTEM: Muscarinic acetylcholine receptor M1 (Homo sapiens, UniProt P11229)
ASSIGNED CLASS: label 1

Hey, just so you know, these numbers are from ChEMBL document CHEMBL4017487.
